System: MDA-MB-468 breast
Experiment: NCI tumour cell line growth inhibition, 48 h
Please enter Criterion met where TGI is greater than or equal to 4 µM, and Criterion not met where it is lower.

compound: CC(=C/c1ccccc1)/C=C1/NC(=S)N(/C=C2\C(=O)Oc3ccccc3C2=O)C1=O
cat: Criterion met
//
compound: CN(C)CCCn1c(-c2nonc2N)nc2cnccc21
cat: Criterion met
//
compound: COc1ccc2ccc3oc([N+](=O)[O-])cc3c2c1
cat: Criterion not met
//
compound: COc1ccccc1[C@H]1C(C(=O)c2ccc(Cl)cc2)C2(N[C@@H]1c1ccccc1)C(=O)Nc1ccccc12 (stereo not given in full)
cat: Criterion not met
//
compound: N#CC1C=Cc2c(ccc3ccccc23)N1C(=O)c1ccccc1 (stereo not given)
cat: Criterion not met
//
compound: C[C@@H](Nc1nc(Nc2ccc(F)c(Cl)c2)nc2ccccc12)C1CC1
cat: Criterion not met
//
compound: COc1ccc(-c2nn(-c3ccc(NC(=O)Nc4ccc(Cl)c(C(F)(F)F)c4)cc3)cc2-c2ccncc2)cc1Cl
cat: Criterion not met
//
compound: Nc1ncc(-c2cccc(S(N)(=O)=O)c2)c2scc(-c3ccc(F)c(Cl)c3)c12
cat: Criterion met
//
compound: CCCCCCCCCCCCCCCC1=NC(C)(C)CN1C(C)C
cat: Criterion not met
//
compound: COc1ccc2nc3cc(Cl)ccc3c(NCCNc3c4ccc(Cl)cc4nc4ccc(OC)cc34)c2c1
cat: Criterion not met

###

System: MDA-MB-468 breast
Experiment: NCI tumour cell line growth inhibition, 48 h; in the data active means GI50 below about 0.43 µM; inactive means the rest
Outcomes: active, inactive

molecule: COc1ccc2nc3cc(Cl)ccc3c(NCCNc3c4ccc(Cl)cc4nc4ccc(OC)cc34)c2c1
cat: inactive

molecule: N#CC1C=Cc2c(ccc3ccccc23)N1C(=O)c1ccccc1 (centres undefined)
cat: active

molecule: CC(C)(C)c1ccc(NS(=O)(=O)c2ccc3nc(NC(=O)c4cnccn4)[nH]c3c2)cc1
cat: inactive

molecule: CC[C@H](C)C(=O)O[C@H]1C[C@H](O)C=C2C=C[C@H](C)[C@H](CC[C@@H](O)C[C@@H](O)CC(=O)O)[C@H]21
cat: inactive

molecule: Cc1ccc(-c2cc(O)c(-c3ccc(C)cc3C)cc2O)c(C)c1
cat: inactive

molecule: COc1ccc2ccc3oc([N+](=O)[O-])cc3c2c1
cat: active

molecule: Nc1c(C(=O)Nc2cccc(Cl)c2Cl)sc2nc3c(cc12)C(=O)CCC3
cat: inactive

molecule: CCN(c1cc(C#CCN2CCOCC2)cc(C(=O)NCc2c(C)cc(C)[nH]c2=O)c1C)C1CCC(N(C)CCOC)CC1 (centres undefined)
cat: inactive

molecule: CC#Cc1nc(Nc2cc(C)[nH]n2)c2ccccc2n1
cat: inactive

###

Test system: MOLT-4 leukemia
Experiment: NCI tumour cell line growth inhibition, 48 h
As shown below, each of these compounds has a reported TGI value.
reportedEndpoint: TGI

compound: C/C(=N\N=C\c1cc([N+](=O)[O-])ccc1Cl)c1ccc2c(c1)Nc1ccccc1S2
target: MOLT-4 leukemia
reportedEndpoint: TGI
assayValue: > 100 µM
--
compound: COc1ccc(NC(=O)N/N=C/c2c[nH]c3ccccc23)cc1
target: MOLT-4 leukemia
reportedEndpoint: TGI
assayValue: 50.7 µM
--
compound: CC1[C@H]2[C@H](C[C@H]3[C@@H]4CC=C5c6sc(Nc7ccccc7F)nc6CC[C@]5(C)[C@H]4CC[C@@]32C)O[C@]12CC[C@@H](C)CO2 (some centres undefined)
target: MOLT-4 leukemia
reportedEndpoint: TGI
assayValue: > 100 µM
--
compound: COc1ccccc1[C@H]1C(C(=O)c2ccc(Cl)cc2)C2(N[C@@H]1c1ccccc1)C(=O)Nc1ccccc12 (some centres undefined)
target: MOLT-4 leukemia
reportedEndpoint: TGI
assayValue: 16.1 µM
